Target entity: T1, rhIL-21-His (AB235875-1001, Abcam) (human, UniProt Q9HBE4 30-162)
T1 construct: bought; not shown: His tag, length and position not described
T1 sequence (Q9HBE4 30-162 limits assumed): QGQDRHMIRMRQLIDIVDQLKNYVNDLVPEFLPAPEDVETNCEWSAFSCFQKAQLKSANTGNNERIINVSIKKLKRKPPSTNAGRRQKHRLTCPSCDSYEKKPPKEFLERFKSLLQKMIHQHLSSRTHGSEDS
Measurement notes: SPR, Fab on captured rhIL-21-His
Parameter measured: koff (s⁻¹)

- Binder: "OWS965 Fab (Fab, V domains shown, Fab) VH: QVQLQESGPGLVKPSETLSLTCTVSGGSISSDYWGWIRQPPGKGLEWIGYISYSGSTNYNPSLKSRVTISVDTSRNQFSLKLSSVTAADTAVYYCARSAGVADFDAWGQGTLVTVSS VL: DIQLTQSPSSVSASVGDRVTITCRASQGISSWLAWYQHKPGKAPKLLIYVASSLQSGVPSRFSGSGSGTDFTLTISSLQPEDFATYYCQQASSFPLTFGGGTKVEIK"
  Result unit: "s⁻¹"
  Meas value: 0.00017
- Binder: "MEK904 Fab (Fab, V domains shown, Fab) VH: QVQLQESGPGLVKPSETLSLTCTVSGGSISSDYWGWIRQPPGKGLEWIGYISYRGSTNYNPSLKSRVTISVDTSRNQFSLKLSSVTAADTAVYYCARSAGVADFDFWGQGTLVTVSS VL: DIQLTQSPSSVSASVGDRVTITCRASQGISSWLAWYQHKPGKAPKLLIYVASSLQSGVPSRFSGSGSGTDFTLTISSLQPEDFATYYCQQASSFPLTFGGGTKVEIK"
  Result unit: "s⁻¹"
  Meas value: 0.00015
- Binder: "JSQ278 Fab (Fab, V domains shown, Fab) VH: QVQLQESGPGLVKPSETLSLTCTVSGGSISSDYWGWIRQPPGKGLEWIGYISYRGSTNYNPSLKSRVTISVDTSRNQFSLKLSSVTAADTAVYYCARSAGVTDFDAWGQGTLVTVSS VL: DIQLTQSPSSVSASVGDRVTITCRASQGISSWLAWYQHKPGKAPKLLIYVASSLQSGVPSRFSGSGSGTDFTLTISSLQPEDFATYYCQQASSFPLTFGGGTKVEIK"
  Result unit: "s⁻¹"
  Meas value: 0.00015

Hey, just so you know, these numbers are from patent EP4671273A1.
